Target: POU domain, class 5, transcription factor 1 (Homo sapiens) (UniProt Q01860)
Sequence (Q01860 whole entry, the tested form may be a part): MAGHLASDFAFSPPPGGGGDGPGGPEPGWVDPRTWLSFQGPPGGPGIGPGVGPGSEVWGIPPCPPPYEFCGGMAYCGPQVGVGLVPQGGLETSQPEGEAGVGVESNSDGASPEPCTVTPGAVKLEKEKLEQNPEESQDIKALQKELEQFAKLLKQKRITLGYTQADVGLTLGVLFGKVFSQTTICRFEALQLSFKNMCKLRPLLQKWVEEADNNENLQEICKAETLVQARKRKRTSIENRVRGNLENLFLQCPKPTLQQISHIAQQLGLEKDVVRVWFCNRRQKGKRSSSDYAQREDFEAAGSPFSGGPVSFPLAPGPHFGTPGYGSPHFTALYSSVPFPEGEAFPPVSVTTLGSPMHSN
Assay: Activation of Oct3/4 (unknown origin) expressed in HEK293 cells after 72 hrs by luciferase reporter gene assay relative to control
Format: cell-based
Activity calls are given as the source filed them. The rule behind the calls is not given here.
Bench note: report the call from active, inactive

CCOC(=O)c1csc(Nc2ccc(Cl)c(Cl)c2)n1 = active
CCOC(=O)c1csc(Nc2cccc(F)c2)n1 = active
O=C(O)c1csc(Nc2cc(Cl)ccc2Cl)n1 = inactive
CCCCNc1nc(C(=O)OCC)cs1 = inactive
CCOC(=O)c1csc(Nc2cccc(Cl)c2)n1 = active
CCOC(=O)c1csc(Nc2ccc(Nc3nc(C(=O)OCC)cs3)cc2)n1 = inactive
CN(C)CCCNC(=O)c1csc(Nc2ccc(Cl)cc2)n1 = inactive
CCOC(=O)c1csc(Nc2ccc(Cl)cc2)n1 = active
CCOC(=O)c1csc(NC(C)=O)n1 = inactive
O=C(O)c1csc(Nc2cccc(Cl)c2)n1 = inactive

What classification did CCOC(=O)c1csc(N)n1 end up with in this test?
inactive

Test call, this molecule: CCOC(=O)c1csc(Nc2ccc(Cl)cc2Cl)n1
active

----------
Target: POU domain, class 5, transcription factor 1 (Homo sapiens) (UniProt Q01860)
Experiment: Activation of Oct3/4 (unknown origin) expressed in HEK293 cells after 72 hrs by luciferase reporter gene assay relative to control
Assay type: cell-based
Active and inactive are the calls of the source. The rule behind the calls is not given here.
One label from this list, please: active, inactive

Answered examples (2):
O=C(O)c1csc(Nc2ccc(Cl)cc2Cl)n1 = inactive
CCOC(=O)c1csc(Nc2ccccc2)n1 = active

Just curious, what result did O=C(O)c1csc(Nc2ccc(Cl)cc2)n1 get here?
inactive

What classification did CCOC(=O)c1csc(NCc2ccccc2)n1 end up with in this test?
inactive

Could you kindly confirm the outcome this assay logged for C=CCNc1nc(C(=O)OCC)cs1 ?
inactive
